System: Human immunodeficiency virus type 1 reverse transcriptase (Human immunodeficiency virus 1, UniProt Q72547)
Lab note: cut-off is 200 nM. Strictly less in IC50 is class 1. Exactly 200 nM or more is class 0.

- Compound: "Cc1cc(/C=C/C#N)cc(C)c1Oc1nc(NC2CCN(Cc3ccc(C(F)(F)F)cc3)CC2)nc2c1COC2"
  Group label: "class 0"
- Compound: "Cc1cc(/C=C/C#N)cc(C)c1Oc1nc(Nc2ccc(N3CCC(NS(N)(=O)=O)C3)cc2)nc2c1COC2 (stereo not drawn)"
  Group label: "class 0"
- Compound: "Cc1cc(/C=C/C#N)cc(C)c1Oc1nc(Nc2ccc(C3CCCN(S(N)(=O)=O)CC3)cc2)nc2c1COC2 (stereo not drawn)"
  Group label: "class 1"
- Compound: "Cc1cc(/C=C/C#N)cc(C)c1Oc1nc(Nc2ccc(N3CCN(S(N)(=O)=O)CC3)cc2)nc2c1COC2"
  Group label: "class 0"
- Compound: "Cc1cc(/C=C/C#N)cc(C)c1Oc1nc(NC2CCN(Cc3ccc(S(N)(=O)=O)cc3)CC2)nc2c1COC2"
  Group label: "class 1"
- Compound: "Cc1cc(/C=C/C#N)cc(C)c1Oc1nc(Nc2ccc(N3CCCC(NS(N)(=O)=O)C3)cc2)nc2c1COC2 (stereo not drawn)"
  Group label: "class 0"
- Compound: "Cc1cc(/C=C/C#N)cc(C)c1Oc1nc(Nc2ccc(N3CCC(NS(C)(=O)=O)CC3)cc2)nc2c1COC2"
  Group label: "class 0"
- Compound: "Cc1cc(/C=C/C#N)cc(C)c1Oc1nc(NC2CCN(c3ccc(N)cc3)CC2)nc2c1COC2"
  Group label: "class 1"
- Compound: "Cc1cc(/C=C/C#N)cc(C)c1Oc1nc(NC2CCN(c3ccc(C(N)=O)cc3)CC2)nc2c1COC2"
  Group label: "class 1"
- Compound: "Cc1cc(/C=C/C#N)cc(C)c1Oc1nc(NC2CCN(c3ccc(NS(C)(=O)=O)cc3)CC2)nc2c1COC2"
  Group label: "class 1"
- Compound: "Cc1cc(/C=C/C#N)cc(C)c1Oc1nc(Nc2ccc(CN3CCN(S(C)(=O)=O)CC3)cc2)nc2c1COC2"
  Group label: "class 1"
- Compound: "Cc1cc(/C=C/C#N)cc(C)c1Oc1nc(NC2CCN(c3ccc(S(C)(=O)=O)cc3)CC2)nc2c1COC2"
  Group label: "class 1"
- Compound: "Cc1cc(/C=C/C#N)cc(C)c1Oc1nc(NC2CCN(Cc3ccc(N)cc3)CC2)nc2c1COC2"
  Group label: "class 1"

---

Assay remarks: Selectivity index, ratio of CC50 for human MT4 cells to EC50 for antiviral activity against HIV-1 IIIB
Type: toxicity
Measurement setup: read-out: Ratio CC50/EC50
Quantity name: selectivity ratio

- Smi: "Cn1c(Cn2ccc(C(F)(F)F)c(Oc3cc(Cl)cc(C#N)c3)c2=O)n[nH]c1=O"
  Recorded value: "> 21800"

---

The following compounds each carry a recorded IC50 for UniProt Q72547.

- Compound: "Cc1cc(/C=C/C#N)cc(C)c1Oc1nc(Nc2ccc(N3CCN(S(C)(=O)=O)CC3)cc2)nc2c1COC2"
  IC50 / nM: 180
- Compound: "Cc1cc(/C=C/C#N)cc(C)c1Oc1nc(Nc2ccc(N3CCC(NS(C)(=O)=O)C3)cc2)nc2c1COC2 (centres undefined)"
  IC50 / nM: 180
- Compound: "Cc1cc(/C=C/C#N)cc(C)c1Oc1nc(NC2CCN(Cc3ccc(C(N)=O)cc3)CC2)nc2c1COC2"
  IC50 / nM: 140
- Compound: "Cc1cc(/C=C/C#N)cc(C)c1Oc1nc(Nc2ccc(N3CCCC(NS(C)(=O)=O)C3)cc2)nc2c1COC2 (centres undefined)"
  IC50 / nM: 1240
